assay: Generation of bioluminescence from luciferin borates upon treatment with hydrogen peroxide (luciferase light reaction); type: biochemical; conditions: H2O2 5 μM, phosphate buffer pH 7.73, 70 minutes
Each entry below lists one item and its recorded average relative light units (bioluminescence) value.

Examples with answers:
Compound	Result
CC(Oc1ccc2nc(C3=NC(C(=O)O)CS3)sc2c1)c1ccc(B(O)O)cc1 (stereo not shown) [PBI 4425]	13,739 RLU
O=C(O)C1CSC(c2nc3ccc(OCc4ccc(B(O)O)c5ccccc45)cc3s2)=N1 (stereo not shown) [PBI 4013]	1,089,717 RLU
O=C(O)C1CSC(c2nc3ccc(OCc4c(B(O)O)ccc5ccccc45)cc3s2)=N1 (stereo not shown) [PBI 4424]	18,681 RLU

Next up:
Please give the documented average relative light units (bioluminescence) of O=C(O)C1CSC(c2nc3ccc(OCc4ccc(B(O)O)cc4)cc3s2)=N1 (stereo not shown) [PBI 3048]
1,200,842 RLU

* * *

Measured average relative light units (bioluminescence) by item
Test: Generation of bioluminescence from luciferin borates upon treatment with hydrogen peroxide (luciferase light reaction)
Format: biochemical
Conditions: H2O2 5 μM, phosphate buffer pH 9.18, 70 minutes
Method: In this example, luciferin borates were incubated with hydrogen peroxide, and luciferin generation was measured using a light reaction catalyzed by luciferase. An increase in light output (bioluminescence) as a result of treatment of the luciferin borates with hydrogen peroxide indicates generation of luciferin as a result of the reaction with hydrogen peroxide. […]

Examples from the recorded data:
Molecule	Result
O=C(O)C1CSC(c2nc3ccc(OCc4ccc(B(O)O)cc4)cc3s2)=N1 (stereo not shown) [PBI 3048]	3,834,248 RLU
O=C(O)C1CSC(c2nc3ccc(OCc4ccc(B(O)O)c5ccccc45)cc3s2)=N1 (stereo not shown) [PBI 4013]	3,678,815 RLU

Assign average relative light units (bioluminescence) to the following record: O=C(O)C1CSC(c2nc3ccc(OCc4c(B(O)O)ccc5ccccc45)cc3s2)=N1 (stereo not shown) [PBI 4424]
22,309 RLU

# return recorded average relative light units (bioluminescence) for input CC(Oc1ccc2nc(C3=NC(C(=O)O)CS3)sc2c1)c1ccc(B(O)O)cc1 (stereo not shown) [PBI 4425]
19,728 RLU

* * *

experiment: Light generation from compounds following incubation with hydrogen peroxide in different pH solutions (D-cysteine conversion, LDR); format: biochemical; conditions: pH 7.6; signal with peroxide to background no peroxide
1 means recorded Signal to Background Ratios is 3 or above; -1 means it is below 3.

Below, 4 molecules whose answers are already recorded.
Molecule	Assigned class
CC1(C)OB(c2ccc(COc3ccc4nc(C#N)sc4c3)c3ccccc23)OC1(C)C [PBI 4480]	1
CC1(C)OB(c2ccc(COc3ccc4nc(C#N)sc4c3)cc2F)OC1(C)C [PBI 4481]	1
N#Cc1nc2ccc(OCc3ccc(B(O)O)cc3)cc2s1 [PBI 4452]	-1
N#Cc1nc2ccc(OCc3ccc(B(O)O)c(Cl)c3)cc2s1 [PBI 4470]	-1

Answer whether Signal to Background Ratios of CC1(C)OB(c2ccc(COc3ccc4nc(C#N)sc4c3)cc2)OC1(C)C [PBI 4472] is greater than or equal to 3.
1

* * *

experiment: Generation of bioluminescence from luciferin borates upon treatment with hydrogen peroxide (luciferase light reaction); type: biochemical; conditions: H2O2 10 μM, phosphate buffer pH 7.41, 70 minutes
Readings of average relative light units (bioluminescence) for the listed compounds

Compound	Result
O=C(O)C1CSC(c2nc3ccc(OCc4ccc(B(O)O)cc4)cc3s2)=N1 (stereo not shown)	1,302,514 RLU
O=C(O)C1CSC(c2nc3ccc(OCc4c(B(O)O)ccc5ccccc45)cc3s2)=N1 (stereo not shown)	17,508 RLU
CC(Oc1ccc2nc(C3=NC(C(=O)O)CS3)sc2c1)c1ccc(B(O)O)cc1 (stereo not shown)	14,768 RLU

Give recorded average relative light units (bioluminescence). O=C(O)C1CSC(c2nc3ccc(OCc4ccc(B(O)O)c5ccccc45)cc3s2)=N1 (stereo not shown)
1,020,315 RLU

* * *

Let's look at some compounds and their measured average relative light units (bioluminescence).
assay: Generation of bioluminescence from luciferin borates upon treatment with hydrogen peroxide (luciferase light reaction); assay type: biochemical; conditions: H2O2 0 μM, phosphate buffer pH 9.18, 70 minutes

Consider the worked cases shown below.
Compound	Result
O=C(O)C1CSC(c2nc3ccc(OCc4ccc(B(O)O)c5ccccc45)cc3s2)=N1 (stereo not shown)	700,831 RLU
O=C(O)C1CSC(c2nc3ccc(OCc4ccc(B(O)O)cc4)cc3s2)=N1 (stereo not shown)	819,156 RLU
CC(Oc1ccc2nc(C3=NC(C(=O)O)CS3)sc2c1)c1ccc(B(O)O)cc1 (stereo not shown)	9,428 RLU

Give the reported average relative light units (bioluminescence) for this compound. O=C(O)C1CSC(c2nc3ccc(OCc4c(B(O)O)ccc5ccccc45)cc3s2)=N1 (stereo not shown)
17,794 RLU

* * *

experiment: Generation of bioluminescence from luciferin borates upon treatment with hydrogen peroxide (luciferase light reaction); assay type: biochemical; details: H2O2 0 μM, phosphate buffer pH 8.04, 70 minutes
Readout type: average relative light units (bioluminescence)

Some compounds with known average relative light units (bioluminescence) results, for comparison:
Compound	Result
O=C(O)C1CSC(c2nc3ccc(OCc4c(B(O)O)ccc5ccccc45)cc3s2)=N1 (stereo not shown) [PBI 4424]	18,602 RLU
CC(Oc1ccc2nc(C3=NC(C(=O)O)CS3)sc2c1)c1ccc(B(O)O)cc1 (stereo not shown) [PBI 4425]	10,312 RLU
O=C(O)C1CSC(c2nc3ccc(OCc4ccc(B(O)O)cc4)cc3s2)=N1 (stereo not shown) [PBI 3048]	561,030 RLU

Below: the item to evaluate.
Indicate the recorded average relative light units (bioluminescence) value for this compound: O=C(O)C1CSC(c2nc3ccc(OCc4ccc(B(O)O)c5ccccc45)cc3s2)=N1 (stereo not shown) [PBI 4013]
585,008 RLU

* * *

experiment: Generation of bioluminescence from luciferin borates upon treatment with hydrogen peroxide (luciferase light reaction); assay type: biochemical; settings: H2O2 10 μM, phosphate buffer pH 8.04, 70 minutes
In this section we review reported average relative light units (bioluminescence) values for a set of compounds.

Compound	Result
CC(Oc1ccc2nc(C3=NC(C(=O)O)CS3)sc2c1)c1ccc(B(O)O)cc1 (stereo not shown) [PBI 4425]	19,258 RLU
O=C(O)C1CSC(c2nc3ccc(OCc4ccc(B(O)O)cc4)cc3s2)=N1 (stereo not shown) [PBI 3048]	3,137,287 RLU
O=C(O)C1CSC(c2nc3ccc(OCc4c(B(O)O)ccc5ccccc45)cc3s2)=N1 (stereo not shown) [PBI 4424]	20,554 RLU

Supply recorded average relative light units (bioluminescence) for O=C(O)C1CSC(c2nc3ccc(OCc4ccc(B(O)O)c5ccccc45)cc3s2)=N1 (stereo not shown) [PBI 4013] here.
2,485,677 RLU

* * *

test: Generation of bioluminescence from luciferin borates upon treatment with hydrogen peroxide (luciferase light reaction); format: biochemical; conditions: H2O2 0 μM, phosphate buffer pH 6.87, 70 minutes
Listed here are compounds together with their documented average relative light units (bioluminescence).

Compound	Result
O=C(O)C1CSC(c2nc3ccc(OCc4c(B(O)O)ccc5ccccc45)cc3s2)=N1 (stereo not shown)	17,522 RLU
CC(Oc1ccc2nc(C3=NC(C(=O)O)CS3)sc2c1)c1ccc(B(O)O)cc1 (stereo not shown)	10,464 RLU
O=C(O)C1CSC(c2nc3ccc(OCc4ccc(B(O)O)c5ccccc45)cc3s2)=N1 (stereo not shown)	421,702 RLU

From here, focus on the item given below.
Report average relative light units (bioluminescence) for O=C(O)C1CSC(c2nc3ccc(OCc4ccc(B(O)O)cc4)cc3s2)=N1 (stereo not shown)
392,535 RLU

* * *

Assay: Signal strength differences due to reaction pH and buffer composition (hydrogen peroxide, D-cysteine conversion, LDR)
Format: biochemical
Settings: TRIS pH 10.4, 60 minutes, 100 μl of 10 μM H2O2 added
Experimental: A 30 μl sample of 4 mg/ml PBI 4458 in DMSO was diluted to 1.5 ml with Nanopure water, and 50 μl added to wells A1-12 and E1-12 of a microtiter plate. […] After incubation, 25 μl of sample from all wells in the plate was transferred and mixed into the corresponding wells in the luminometer plate, incubated 2-3 minutes at room temperature, and 50 μl LDR (Example 23) added. The luminometer plate was incubated for 15 minutes at room temperature, and bioluminescence detected on a GloMax® luminometer. […]
Readout type: Net Average Signals at 60 Minutes

Smi	Result
CC1(C)OB(c2ccc(COc3ccc4nc(C#N)sc4c3)cc2F)OC1(C)C	2,780,433 RLU
CC1(C)OB(c2ccc(COc3ccc4nc(C#N)sc4c3)c3ccccc23)OC1(C)C	1,903,885 RLU

Determine its reported Net Average Signals at 60 Minutes: `CC1(C)OB(c2ccc(COc3ccc4nc(C#N)sc4c3)cc2)OC1(C)C`
3,777,236 RLU

Return Net Average Signals at 60 Minutes (reported value) for this compound: `CC1(C)OB(/C=C/COc2ccc3nc(C#N)sc3c2)OC1(C)C`
3,795,644 RLU
